- Test system: HT-1197 cells
- assay: Cell-based assay: anti-proliferative activity, Cell Counting Kit-8, 72 hours (HT-1197, negative control without MELK expression)
- experimentalContext: Homo sapiens, HT1197, 72 h, HT1197 cells (negative control), 72 hours
Counter-ions that a name gives are not always drawn.
Note to self: use MET only for IC50 readings below 4 µM; a reading exactly at 4 µM still gets NOT MET.

compound	tgt	assignedClass
CN(C)C[C@H]1CC[C@H](Nc2c(C(=O)C(C)(C)C)cnc3ccc(-c4cc(F)c(O)c(Cl)c4)cc23)CC1 [Example 919, hydrochloride]	HT-1197 cells	NOT MET
CC(=O)c1cnc2ccc(-c3cc(Cl)c(O)c(Cl)c3)cc2c1Nc1ccc(C(N)=O)cc1	HT-1197 cells	NOT MET
COc1cc(-c2ccc3ncc(C(=O)C4CC4)c(Nc4ccc(N5CCC(N)C5)nc4)c3c2)cc(Cl)c1O (centres unmarked)	HT-1197 cells	MET
COc1cc(-c2ccc3ncc(C(=O)C4CC4)c(C4=CCNCC4)c3c2)cc(Cl)c1O	HT-1197 cells	MET
CC(=O)c1cnc2cc(C)c(-c3cc(Cl)c(O)c(Cl)c3)cc2c1Nc1ccc(N2CCN(C)CC2)nc1 [Example 866, hydrochloride]	HT-1197 cells	NOT MET
CN(C)Cc1cccc(Nc2c(C(=O)C3CC3)cnc3ccc(-c4cc(Cl)c(O)c(Cl)c4)cc23)c1	HT-1197 cells	MET
CC(=O)c1cnc2ccc(-c3ccc4nc[nH]c4c3)cc2c1Nc1cnn(C2CCN(C)CC2)c1 [Example 895, hydrochloride]	HT-1197 cells	NOT MET
CC(=O)c1cnc2ccc(-c3cc(F)c(O)c(Cl)c3)cc2c1Nc1cnc(N2CCNCC2)nc1	HT-1197 cells	MET
CCCC(=O)c1cnc2ccc(-c3cc(Cl)c(O)c(OC)c3)cc2c1N[C@H]1CC[C@H](N)CC1	HT-1197 cells	MET
CN(CC#N)C[C@H]1CC[C@@H](Nc2c(C(=O)C3CC3)cnc3ccc(-c4cc(F)c(O)c(Cl)c4)cc23)CC1	HT-1197 cells	MET
COc1cc(-c2ccc3ncc(C(C)=O)c(Nc4cnc(N5CCNCC5)nc4)c3c2)cc(Cl)c1O	HT-1197 cells	MET
CC(=O)c1cnc2ccc(-c3cc(Cl)c(O)c(Cl)c3)cc2c1N[C@H]1CC[C@H](NC(=O)[C@H](C)N)CC1	HT-1197 cells	NOT MET
CC(=O)c1cnc2ccc(-c3cc(Cl)c(O)c(Cl)c3)cc2c1N[C@H]1CC[C@H](NC(=O)C2CCCN2C)CC1 (some centres unmarked) [Example 875, hydrochloride]	HT-1197 cells	NOT MET
CC(=O)c1cnc2cc(F)c(-c3cc(F)c(O)c(Cl)c3)cc2c1N[C@H]1CC[C@H](CN2CCCC2)CC1 [Example 925, hydrochloride]	HT-1197 cells	MET

###

- Test system: HT-1197 cells
- assay: Cell-based assay: anti-proliferative activity, Cell Counting Kit-8, 72 hours (HT-1197, negative control without MELK expression)
- experimentalContext: Homo sapiens, HT1197, 72 h, HT1197 cells (negative control), 72 hours
Where a name gives a salt, the structure may show the parent alone.
Listed next: entries and their corresponding IC50.

compound	IC50
COc1cc(-c2ccc3ncc(C(=O)C4CC4)c(Nc4cnc(N5CCC(N)C5)nc4)c3c2)cc(Cl)c1O (stereo not shown)	1.1 µM
CC(=O)c1cnc2ccc(-c3ccc4nc[nH]c4c3)cc2c1N[C@H]1CC[C@H](CN(C)C)CC1 [Example 911, hydrochloride]	13 µM
O=C(c1cnc2ccc(-c3cc(Cl)c(O)c(Cl)c3)cc2c1Nc1ccc(CN2CCC(F)(F)C2)cc1)C1CC1	5.3 µM
NC1CCN(c2ncc(Nc3c(C(=O)C4CC4)cnc4ccc(-c5cc(F)c(O)c(Cl)c5)cc34)cn2)CC1	1.9 µM

###

- tgt: UniProt:Q14680
- Sequence (Q14680 whole entry, looked up): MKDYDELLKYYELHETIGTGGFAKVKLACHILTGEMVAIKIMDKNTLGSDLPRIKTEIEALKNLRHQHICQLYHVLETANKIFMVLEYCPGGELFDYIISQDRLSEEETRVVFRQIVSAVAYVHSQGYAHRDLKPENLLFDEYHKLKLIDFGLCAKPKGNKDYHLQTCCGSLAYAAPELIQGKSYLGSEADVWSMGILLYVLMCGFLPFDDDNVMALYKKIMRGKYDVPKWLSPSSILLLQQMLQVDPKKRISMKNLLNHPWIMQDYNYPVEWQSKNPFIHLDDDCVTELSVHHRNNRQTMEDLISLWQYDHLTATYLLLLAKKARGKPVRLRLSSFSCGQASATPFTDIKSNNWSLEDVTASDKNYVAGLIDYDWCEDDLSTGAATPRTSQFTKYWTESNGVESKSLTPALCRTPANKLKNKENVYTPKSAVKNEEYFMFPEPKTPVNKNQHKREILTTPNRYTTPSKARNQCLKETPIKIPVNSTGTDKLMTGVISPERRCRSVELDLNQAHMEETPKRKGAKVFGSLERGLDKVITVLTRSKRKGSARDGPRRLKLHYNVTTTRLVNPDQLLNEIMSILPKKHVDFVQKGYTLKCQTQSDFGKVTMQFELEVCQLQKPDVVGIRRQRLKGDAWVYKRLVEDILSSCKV
- assay: Kinase assay: MELK activity, phosphorylation of FITC-labeled histone H3 peptide measured by IMAP fluorescence polarization
- Format: biochemical
- experimentalContext: 50 micro-M ATP, FITC-labeled histone H3 peptide substrate, IMAP fluorescence polarization; read-out: IC50 (μM) (kinase assay)

molecule	unitSpec	IC50
N[C@H]1CC[C@H](Nc2c(C(=O)C3CC3)cnc3ccc(-c4ccncc4)cc23)CC1 [Example 212]	µM	0.054
CC(C)C(=O)c1cnc2ccc(-c3cc(Cl)c(O)c(Cl)c3)cc2c1N[C@H]1CC[C@H](N)CC1 [Example 225(a)]	µM	0.0025
O=C(c1cnc2ccc(-c3cc(Cl)c(O)c(Cl)c3)cc2c1Nc1ccc(N2CCNCC2)nc1)C1CC1 [Example 409]	µM	0.0017
CS(=O)(=O)c1cnc2ccc(-c3cc(F)c(O)c(Cl)c3)cc2c1N1CCC(CN2CCCC2)CC1 [Example 407]	µM	0.0051
COc1cc(-c2ccc3ncc(C(=O)C4CC4)c(NC45CC6CC(CC(N)(C6)C4)C5)c3c2)cc(Cl)c1O [Example 309]	µM	0.0087
CC(C)C(=O)c1cnc2ccc(-c3cc(F)c(O)c(Cl)c3)cc2c1N1CCC(CN2CCCC2)CC1 [Example 323]	µM	0.013
CN(C)Cc1ccc(Nc2c(C(=O)C3CC3)cnc3ccc(-c4cnc(C#N)nc4)cc23)nc1 [Example 439]	µM	0.058

###

- Tested on: DU4475
- assay: Cell-based assay: anti-proliferative activity, Cell Counting Kit-8, 72 hours (DU4475)
- experimentalContext: Homo sapiens, DU-4475, DU4475 cells
Listed next: entries and their corresponding IC50.

compound	IC50 [µM]
CN1CCN(Cc2ccc(-c3c(C(=O)C4CC4)cnc4ccc(-c5cc(Cl)c(O)c(Cl)c5)cc34)cc2)CC1 [Example 482]	0.9
CC(=O)c1cnc2ccc(-c3cc(F)c(O)c(Cl)c3)cc2c1Nc1ccc(N2CCN(C)CC2)nc1 [Example 487]	0.1
C[S+]([O-])c1cnc2ccc(-c3ccc(O)c(Cl)c3)cc2c1N[C@H]1CC[C@H](N)CC1 (some centres unmarked) [Example 499]	2.5
O=C(c1cnc2ccc(-c3cc(F)c(O)c(Cl)c3)cc2c1Nc1cnc(N2CCNCC2)nc1)C1CC1 [Example 496]	0.068
COc1cc(-c2ccc3ncc(C(=O)C4CC4)c(Nc4cnc(N5CCNCC5)nc4)c3c2)cc(Cl)c1O [Example 503]	0.46
CC(=O)c1cnc2ccc(-c3cc(F)c(O)c(Cl)c3)cc2c1N1CCN(C(=O)CN(C)C)CC1 [Example 484]	0.58
O=C(c1cnc2ccc(-c3cc(F)c(O)c(Cl)c3)cc2c1Nc1ccc(Cn2ccnc2)cc1)C1CC1 [Example 489]	0.97
COc1cc(-c2ccc3ncc(C(=O)C4CC4)c(Nc4ccc(CN5CCOCC5)cc4)c3c2)cc(Cl)c1O [Example 462]	1.1
CC(C)C(=O)c1cnc2ccc(-c3cc4cc(O)ccc4[nH]3)cc2c1N[C@H]1CC[C@H](N)CC1 [Example 480]	0.93
CN(C)Cc1ccc(Nc2c(S(C)(=O)=O)cnc3ccc(-c4cc(F)c(O)c(Cl)c4)cc23)cc1 [Example 399]	0.16
CC(=O)c1cnc2ccc(-c3cc(Cl)c(O)c(Cl)c3)cc2c1Nc1ccc(CN2CCCC2)cc1 [Example 415]	0.067
COc1cc(-c2ccc3ncc(C(=O)C4CC4)c(Nc4ccc(CN)cc4)c3c2)cc(Cl)c1O [Example 506]	0.13
CN1CCN(Cc2ccc(Nc3c(C(=O)C4CC4)cnc4ccc(-c5cc(Cl)c(O)c(Cl)c5)cc34)cc2)CC1 [Example 397]	0.088
N#Cc1ncc(-c2ccc3ncc(C(=O)C4CC4)c(Nc4ccc(CN)cc4)c3c2)cn1 [Example 509]	0.6
NC[C@H]1CC[C@H](Nc2c(C(=O)C3CC3)cnc3ccc(-c4cc(F)c(O)c(Cl)c4)cc23)CC1 [Example 501]	0.031
O=C(c1cnc2ccc(-c3cc(F)c(O)c(Cl)c3)cc2c1Nc1ccc(N2CCNCC2)nc1)C1CC1 [Example 425]	0.044
CCN(CC)C1CCC(Nc2c(C(=O)C3CCCC3)cnc3ccc(-c4cc(F)c(O)c(Cl)c4)cc23)CC1 (centres unmarked) [Example 386]	0.29
O=C(c1cnc2ccc(-c3cc(Cl)c(O)c(Cl)c3)cc2c1Nc1cnc(N2CCNCC2)nc1)C1CC1 [Example 497]	0.056
COc1cc(-c2ccc3ncc(C(=O)C(C)C)c(N[C@H]4CC[C@H](N)CC4)c3c2)cc(Cl)c1O [Example 502]	0.041
COc1cc(-c2ccc3ncc(C(=O)C4CC4)c(N4CCN(CCN5CCCC5)CC4)c3c2)cc(Cl)c1O [Example 394]	0.24
COc1cc(-c2ccc3ncc(C(=O)C4CC4)c(Nc4ccc(Cn5ccnc5)cc4)c3c2)cc(Cl)c1O [Example 490]	0.86
O=C(c1cnc2ccc(-c3cc(Cl)c(O)c(Cl)c3)cc2c1Nc1ccc(N2CCNCC2)nc1)C1CC1 [Example 409]	0.098
COc1cc(-c2ccc3ncc(C(=O)C4CC4)c(-c4ccc(N5CCN(C)CC5)cc4)c3c2)cc(Cl)c1O [Example 438]	0.49
COc1cc(-c2ccc3ncc(C(C)=O)c(Nc4ccc(N5CCN(C)CC5)nc4)c3c2)cc(Cl)c1O [Example 483]	0.69
NCc1ccc(Nc2c(C(=O)C3CC3)cnc3ccc(-c4cc(Cl)c(O)c(Cl)c4)cc23)cc1 [Example 507]	0.018
COc1cc(-c2ccc3ncc(C(C)=O)c(N4CCN(C(=O)CN(C)C)CC4)c3c2)cc(Cl)c1O [Example 477]	0.3
NCc1ccc(Nc2c(C(=O)C3CC3)cnc3ccc(-c4cc(F)c(O)c(Cl)c4)cc23)cc1 [Example 504]	0.019
NC[C@H]1CC[C@H](Nc2c(C(=O)C3CC3)cnc3ccc(-c4cc(Cl)c(O)c(Cl)c4)cc23)CC1 [Example 495]	0.018
C[S+]([O-])c1cnc2ccc(-c3cc(Cl)c(O)c(Cl)c3)cc2c1N[C@H]1CC[C@H](N)CC1 (some centres unmarked) [Example 491]	2.9
